Target: Melanocortin receptor 4 (Mus musculus, UniProt P56450)
Sequence (P56450 whole entry): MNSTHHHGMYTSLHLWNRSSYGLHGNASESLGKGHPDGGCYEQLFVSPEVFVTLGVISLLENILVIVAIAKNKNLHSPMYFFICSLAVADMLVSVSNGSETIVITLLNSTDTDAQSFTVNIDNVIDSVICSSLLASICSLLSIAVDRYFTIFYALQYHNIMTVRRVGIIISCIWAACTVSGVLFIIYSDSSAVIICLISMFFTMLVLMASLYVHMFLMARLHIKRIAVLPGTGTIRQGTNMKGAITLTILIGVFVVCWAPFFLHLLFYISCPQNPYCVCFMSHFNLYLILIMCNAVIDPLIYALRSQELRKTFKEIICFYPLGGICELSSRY
Assay: Agonist activity at mouse melanocortin-4 receptor transfected in HEK293 cells after 6 hrs by beta-galactosidase reporter gene assay
Where a SMILES comes first, the peptide text is derived from it. [ ]: non-standard residue; d: D form. dPhe(4-I) = N[C@H](Cc1ccc(I)cc1)C(=O)O
test.readout: EC50

Some molecules with recorded EC50:
- CC(=O)N[C@@H](Cc1c[nH]c2ccccc12)C(=O)N[C@H](Cc1ccc(I)cc1)C(=O)N[C@@H](CCCNC(=N)N)C(=O)N[C@@H](Cc1ccc2ccccc2c1)C(N)=O: > 100 µM
- CC(=O)N[C@@H](Cc1c[nH]c2ccccc12)C(=O)N[C@H](Cc1ccc(I)cc1)C(=O)N[C@@H](CCCNC(=N)N)C(=O)N[C@@H](Cc1c[nH]c2ccccc12)C(N)=O (Ac-W[dPhe(4-I)]RW-NH2): > 100 µM
- CC(=O)N[C@@H](Cc1c[nH]c2ccccc12)C(=O)N[C@H](Cc1ccc(I)cc1)C(=O)N[C@@H](CCCNC(=N)N)C(=O)N[C@@H](Cc1csc2ccccc12)C(N)=O: > 100 µM

Hey, can you go through the list below and give me EC50 for every item?
1. CC(=O)N[C@@H](Cc1c[nH]c2ccccc12)C(=O)N[C@H](Cc1ccc(I)cc1)C(=O)N[C@@H](CCCNC(=N)N)C(=O)N[C@H](Cc1ccc2ccccc2c1)C(N)=O
2. CC(=O)N[C@@H](Cc1c[nH]c2ccccc12)C(=O)N[C@H](Cc1ccc(I)cc1)C(=O)N[C@@H](CCCNC(=N)N)C(=O)N[C@@H](Cc1ccc(-c2ccccc2)cc1)C(N)=O
3. CC(=O)N[C@@H](Cc1cnc[nH]1)C(=O)N[C@H](Cc1ccccc1)C(=O)N[C@@H](CCCN=C(N)N)C(=O)N[C@@H](Cc1c[nH]c2ccccc12)C(N)=O

Outgoing:
> 100 µM
> 100 µM
0.0054 µM

====

Target: Melanocortin receptor 5 (Mus musculus)
Sequence (P41149 whole entry): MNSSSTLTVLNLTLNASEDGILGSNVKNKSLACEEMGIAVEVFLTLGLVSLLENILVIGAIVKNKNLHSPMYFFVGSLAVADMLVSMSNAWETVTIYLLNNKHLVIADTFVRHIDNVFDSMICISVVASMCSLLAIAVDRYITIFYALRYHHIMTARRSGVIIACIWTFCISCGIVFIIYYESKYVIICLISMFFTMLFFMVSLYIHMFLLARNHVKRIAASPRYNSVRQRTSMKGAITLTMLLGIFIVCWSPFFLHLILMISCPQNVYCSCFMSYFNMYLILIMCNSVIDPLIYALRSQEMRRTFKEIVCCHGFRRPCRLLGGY
Test: Agonist activity at mouse melanocortin-5 receptor transfected in HEK293 cells after 6 hrs by beta-galactosidase reporter gene assay
Where a SMILES comes first, the peptide text is derived from it. [ ]: non-standard residue; d: D form. dPhe(4-I) = N[C@H](Cc1ccc(I)cc1)C(=O)O
Provide the recorded EC50 for the entries that follow.
One number for each entry, in µM.

Some molecules with recorded EC50:
* CC(=O)N[C@@H](Cc1cnc[nH]1)C(=O)N[C@H](Cc1ccccc1)C(=O)N[C@@H](CCCN=C(N)N)C(=O)N[C@@H](Cc1c[nH]c2ccccc12)C(N)=O | 0.0046
* CC(=O)N[C@@H](Cc1c[nH]c2ccccc12)C(=O)N[C@H](Cc1ccc(I)cc1)C(=O)N[C@@H](CCCNC(=N)N)C(=O)N1Cc2ccccc2C[C@H]1C(N)=O | 5.3

Here's the next entry for you.
Incoming: // query EC50 value for entry CC(=O)N[C@@H](Cc1c[nH]c2ccccc12)C(=O)N[C@H](Cc1ccc(I)cc1)C(=O)N[C@@H](CCCNC(=N)N)C(=O)N[C@@H](Cc1c[nH]c2ccccc12)C(N)=O (Ac-W[dPhe(4-I)]RW-NH2)
Outgoing: 2.8

====

Biological target: Melanocortin receptor 4 (Mus musculus, UniProt P56450)
Experiment: Antagonist activity at mouse melanocortin-4 receptor transfected in HEK293 cells assessed as inhibition of MTII-induced response after 6 hrs by Schild analysis
pKi: −log10 of the molar value.
test.readout: pKi

• CC(=O)N[C@@H](Cc1c[nH]c2ccccc12)C(=O)N[C@H](Cc1ccc(I)cc1)C(=O)N[C@@H](CCCNC(=N)N)C(=O)N[C@@H](Cc1ccc2ccccc2c1)C(N)=O = > 8.22

Here's the next entry for you.
Incoming: // query pKi value for entry `CC(=O)N[C@@H](Cc1c[nH]c2ccccc12)C(=O)N[C@H](Cc1ccc(I)cc1)C(=O)N[C@@H](CCCNC(=N)N)C(=O)N[C@H](Cc1ccc2ccccc2c1)C(N)=O`
Outgoing: > 8.22
